Collected from the literature: IC50 of various compounds toward UniProt P52333.

Recorded IC50, per entry:
                                smiles_repr   readout_value
0  C=CC(=O)N1CCC[C@@H](Nc2n[nH]c3nccc(Oc4cccc(C(=O)Nc5ccc(C(C)C)c(C)c5)c4)c23)C1        < 0.1 µM
1  C=CC(=O)N1CCC[C@@H](Nc2nc(Nc3cnn(C4CCCC4)c3)nc3ccsc23)C1  0.01 to 0.1 µM
2  O=c1[nH]c2c(N3CC(F)(F)C3)nc(-n3cnc4ccc(F)cc43)nc2n1C1CCOCC1        < 0.1 µM
3  CC#CC(=O)N1CCC[C@@H](Nc2n[nH]c3nccc(Oc4ccc(C(=O)Nc5cc(C)n(C)n5)cc4)c23)C1         > 10 µM
4  CCOC(=O)Cn1cc(Nc2ncc3ccn(CCC4CCCCC4)c3n2)cn1        < 0.1 µM

// query Give IC50 for this entry on UniProt P52333: `Cn1cncc1-c1nc2cnc(-n3cnc4ccc(F)cc43)nc2n1C1CCOCC1`
// result < 0.1 µM

// query Give IC50 for this entry on UniProt P52333: `Cc1cccc(Nc2cc(Nc3cccc(NC(=O)/C=C/CN4CCNCC4)c3)ncn2)c1`
// result ≥ 10 µM

// query Give IC50 for this entry on UniProt P52333: `CCOC(=O)c1cnc2[nH]ccc2c1N[C@H]1C[C@@H](NS(=O)(=O)c2cccc(C#N)c2)C1`
// result 0.01 to 0.1 µM

---

pIC50: −log10 of the molar value.
Collected from the literature: pIC50 of various compounds toward Tyrosine-protein kinase JAK3 (Homo sapiens, UniProt P52333).

In [3]: df
Out[3]:
                                smiles_repr                               test_system  readout_value
0  Cc1ccnc(NC(=O)c2ccc(Oc3ccnc4[nH]nc(N[C@@H]5CCCN(C(=O)C6(C)CCN(C)CC6)C5)c34)cc2)c1  Tyrosine-protein kinase JAK3 (Homo sapiens, UniProt P52333)         < 5.00
1  C[C@]1(O)CC[C@@H](Nc2c(C(N)=O)cnn3cc(-c4ccc(C#N)cc4)cc23)CC1  Tyrosine-protein kinase JAK3 (Homo sapiens, UniProt P52333)           8.80
2  Cc1ccc(NC(=O)c2cc(C(F)(F)F)cc(Cl)c2F)cc1-c1ccc2[nH]c3ncncc3c2c1  Tyrosine-protein kinase JAK3 (Homo sapiens, UniProt P52333)         < 6.00
3  CCC(CC)n1cc(-c2nc(-c3cnn(C[C@H](O)CN(C)C)c3)cn3nccc23)cn1  Tyrosine-protein kinase JAK3 (Homo sapiens, UniProt P52333)   5.00 to 6.00
4  CCC(=O)c1cnc(Nc2cnc(CN3CCN(C)CC3)cn2)cc1Nc1cccc(-c2ncn(C)n2)c1OC  Tyrosine-protein kinase JAK3 (Homo sapiens, UniProt P52333)         ≤ 6.30
5  Cc1nn(C)cc1S(=O)(=O)N1CC(CCF)(n2cc(-c3nc(-c4cnn(C)c4)cc4nccn34)cn2)C1  Tyrosine-protein kinase JAK3 (Homo sapiens, UniProt P52333)         < 6.00

// query Give pIC50 for this entry on Tyrosine-protein kinase JAK3 (Homo sapiens, UniProt P52333): `CC#CC(=O)N1CCC[C@@H](n2nc(-c3ccc(Oc4ccccc4)cc3)c3c(N)ncnc32)C1`
// result < 5.00
